Molecular target: human Nav1.7 (Homo sapiens (Human))
Sequence (Q15858 with tags, fused parts or gaps limits assumed): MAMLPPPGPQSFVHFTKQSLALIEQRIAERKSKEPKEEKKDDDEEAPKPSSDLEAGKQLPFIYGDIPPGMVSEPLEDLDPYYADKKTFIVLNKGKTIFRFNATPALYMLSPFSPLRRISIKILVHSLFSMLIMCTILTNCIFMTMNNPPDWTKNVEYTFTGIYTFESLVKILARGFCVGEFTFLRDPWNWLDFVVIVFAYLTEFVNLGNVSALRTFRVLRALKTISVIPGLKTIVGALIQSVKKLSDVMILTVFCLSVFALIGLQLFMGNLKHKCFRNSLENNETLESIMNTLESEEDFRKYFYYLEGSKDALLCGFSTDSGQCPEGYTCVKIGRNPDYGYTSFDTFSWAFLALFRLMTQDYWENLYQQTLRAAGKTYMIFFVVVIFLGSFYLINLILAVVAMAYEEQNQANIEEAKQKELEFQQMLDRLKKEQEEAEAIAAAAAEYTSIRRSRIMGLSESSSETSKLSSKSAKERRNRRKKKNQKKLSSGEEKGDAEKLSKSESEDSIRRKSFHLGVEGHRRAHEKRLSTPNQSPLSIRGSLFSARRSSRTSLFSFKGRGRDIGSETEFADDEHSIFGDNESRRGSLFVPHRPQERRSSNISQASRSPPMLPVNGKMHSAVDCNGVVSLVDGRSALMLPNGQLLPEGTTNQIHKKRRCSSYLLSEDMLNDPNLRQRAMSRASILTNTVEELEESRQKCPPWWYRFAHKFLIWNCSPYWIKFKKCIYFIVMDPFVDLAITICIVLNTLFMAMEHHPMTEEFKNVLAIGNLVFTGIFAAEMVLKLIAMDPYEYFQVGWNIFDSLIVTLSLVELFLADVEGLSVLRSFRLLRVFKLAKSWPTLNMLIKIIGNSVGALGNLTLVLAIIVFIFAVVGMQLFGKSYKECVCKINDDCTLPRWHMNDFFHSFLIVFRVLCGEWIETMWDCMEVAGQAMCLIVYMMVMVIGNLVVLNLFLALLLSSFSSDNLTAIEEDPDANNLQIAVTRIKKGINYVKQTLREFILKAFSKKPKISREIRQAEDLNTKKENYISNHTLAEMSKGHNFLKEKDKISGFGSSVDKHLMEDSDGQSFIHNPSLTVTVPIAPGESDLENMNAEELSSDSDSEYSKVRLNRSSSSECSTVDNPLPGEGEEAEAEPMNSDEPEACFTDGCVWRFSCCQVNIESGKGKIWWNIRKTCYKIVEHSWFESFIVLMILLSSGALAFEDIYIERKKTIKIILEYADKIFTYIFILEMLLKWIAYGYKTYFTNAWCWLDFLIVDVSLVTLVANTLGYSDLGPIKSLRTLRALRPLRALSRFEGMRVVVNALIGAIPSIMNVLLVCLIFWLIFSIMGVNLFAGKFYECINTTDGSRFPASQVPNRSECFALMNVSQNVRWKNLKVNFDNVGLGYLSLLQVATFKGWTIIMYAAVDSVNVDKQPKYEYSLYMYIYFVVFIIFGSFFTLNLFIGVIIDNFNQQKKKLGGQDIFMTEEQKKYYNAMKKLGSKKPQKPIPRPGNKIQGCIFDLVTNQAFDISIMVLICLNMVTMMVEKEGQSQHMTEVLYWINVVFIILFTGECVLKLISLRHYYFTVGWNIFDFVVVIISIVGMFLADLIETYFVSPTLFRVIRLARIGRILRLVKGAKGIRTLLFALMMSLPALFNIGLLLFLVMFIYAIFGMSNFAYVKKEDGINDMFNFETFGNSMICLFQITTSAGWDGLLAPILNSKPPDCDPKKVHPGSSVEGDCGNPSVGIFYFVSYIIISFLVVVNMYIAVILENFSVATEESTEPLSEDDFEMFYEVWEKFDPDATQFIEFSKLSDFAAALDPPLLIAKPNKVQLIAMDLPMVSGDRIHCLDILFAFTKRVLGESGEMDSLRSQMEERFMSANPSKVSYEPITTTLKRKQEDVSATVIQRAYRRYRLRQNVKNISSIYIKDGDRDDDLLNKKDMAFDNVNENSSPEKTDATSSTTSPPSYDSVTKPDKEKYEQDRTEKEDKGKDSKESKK
Assay: FLIPR sodium dye assay (CoroNa Green) for sodium channel blocking activity in recombinant Nav1.7/HEK293 cells
Type: cell-based
# Condition met = IC50 below 0.4 µM (exclusive); Condition not met = IC50 at/above 0.4 µM

Some entries whose results are on file:
NC(=O)c1nc(N[C@H]2CCNC2=O)nc(-c2ccc(Oc3ccc(OC(F)(F)F)cc3)cc2)n1 [Compound 2]
Condition met
NC(=O)c1nc(N)nc(N2CC(Oc3ccc(C(F)(F)F)cn3)C2)n1 [Compound 11]
Condition not met
NC(=O)c1nc(-c2ccc(Oc3ccc(C(F)(F)F)cn3)cc2)nc(N2CCOCC2)n1 [Compound 10]
Condition met

Q: Criterion: IC50 strictly below 0.4 µM. Is it met by N#Cc1nc(N[C@H]2CCNC2=O)nc(-c2ccc(Oc3ccc(OC(F)(F)F)cc3)cc2)n1 [Compound 1] ?
Result: Condition not met

Q: Criterion: IC50 strictly below 0.4 µM. Is it met by NC(=O)c1nc(N)nc(-c2ccc(Oc3ccc(C(F)(F)F)cn3)cc2)n1 [Compound 13] ?
Result: Condition not met

Q: Criterion: IC50 strictly below 0.4 µM. Is it met by N#Cc1nc(-c2ccc(Oc3ccc(C(F)(F)F)cn3)cc2)nc(N2CCOCC2)n1 [Compound 8] ?
Result: Condition not met

Q: Criterion: IC50 strictly below 0.4 µM. Is it met by NC(=O)c1nc(-c2ccc(Oc3ccc(OC(F)(F)F)cc3)cc2)nc(N2CCOCC2)n1 [Compound 9] ?
Result: Condition not met

Q: Criterion: IC50 strictly below 0.4 µM. Is it met by CCN(c1nc(C(N)=O)nc(-c2ccc(Oc3ccc(OC(F)(F)F)cc3)cc2)n1)C(C)C [Compound 4] ?
Result: Condition not met

Q: Criterion: IC50 strictly below 0.4 µM. Is it met by NC(=O)c1nc(NCCO)nc(-c2ccc(Oc3ccc(C(F)(F)F)cn3)cc2)n1 [Compound 12] ?
Result: Condition met

Q: Criterion: IC50 strictly below 0.4 µM. Is it met by CCN(c1nc(C(N)=O)nc(-c2ccc(Oc3ccc(C(F)(F)F)cn3)cc2)n1)C(C)C [Compound 5] ?
Result: Condition not met

Q: Criterion: IC50 strictly below 0.4 µM. Is it met by NC(=O)c1nc(N[C@H]2CCNC2=O)nc(N2CC(Oc3ccc(C(F)(F)F)cn3)C2)n1 [Compound 14] ?
Result: Condition not met

// provenance: patent US9120786B2
